molecular target: T. gondii CDPK1 (tgCDPK1) (Toxoplasma gondii, UniProt Q9BJF5); test: biochemical; settings: inhibition of T. gondii CDPK1; at least three independent replicates; read-out: tgCDPK1 IC50
Sequence (Q9BJF5 1-507): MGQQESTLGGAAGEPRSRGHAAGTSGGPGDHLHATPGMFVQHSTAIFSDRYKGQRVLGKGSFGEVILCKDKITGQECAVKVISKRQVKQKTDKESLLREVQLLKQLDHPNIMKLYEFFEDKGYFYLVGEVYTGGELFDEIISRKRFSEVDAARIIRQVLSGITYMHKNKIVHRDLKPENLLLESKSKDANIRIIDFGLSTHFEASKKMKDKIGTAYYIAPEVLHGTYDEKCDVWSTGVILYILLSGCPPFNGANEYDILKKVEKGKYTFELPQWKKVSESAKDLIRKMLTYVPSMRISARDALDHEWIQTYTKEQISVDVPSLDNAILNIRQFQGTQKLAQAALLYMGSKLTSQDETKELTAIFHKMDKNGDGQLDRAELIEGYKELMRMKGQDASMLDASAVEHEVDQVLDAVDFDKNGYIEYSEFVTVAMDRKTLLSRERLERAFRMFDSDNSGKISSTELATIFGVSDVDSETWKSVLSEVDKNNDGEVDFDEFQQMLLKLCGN
recorded.metric: IC50 (nM)
Note: unit nM is implicit; provide only the numeric part.

Tested on T. gondii CDPK1 (tgCDPK1) (Toxoplasma gondii, UniProt Q9BJF5), the item `N#Cc1ccnc(Oc2nn([C@H]3CC[C@@H](C(F)(F)F)CC3)c3ncnc(N)c23)c1` showed IC50 equal to 23.7

Tested on T. gondii CDPK1 (tgCDPK1) (Toxoplasma gondii, UniProt Q9BJF5), the item CC(C)(C)OC(=O)N1CCC(n2nc(Oc3cc(C(F)(F)F)ccn3)c3c(N)ncnc32)C1 (centres unmarked) showed IC50 equal to 38.9

Tested on T. gondii CDPK1 (tgCDPK1) (Toxoplasma gondii, UniProt Q9BJF5), the item COc1ccnc(Oc2nn([C@@H]3CCCC[C@H]3O)c3ncnc(N)c23)c1 (single isomer, unassigned) [Compound 285] showed IC50 equal to 1400

Tested on T. gondii CDPK1 (tgCDPK1) (Toxoplasma gondii, UniProt Q9BJF5), the item `CO[C@H]1CC[C@@H](n2nc(Oc3cc(C(F)(F)F)ccn3)c3c(N)ncnc32)CC1` showed IC50 equal to 44.7

Tested on T. gondii CDPK1 (tgCDPK1) (Toxoplasma gondii, UniProt Q9BJF5), the item COc1ccnc(Oc2nn([C@H]3C[C@H](F)C3)c3ncnc(N)c23)c1 [Compound 175] showed IC50 equal to 17.4

Tested on T. gondii CDPK1 (tgCDPK1) (Toxoplasma gondii, UniProt Q9BJF5), the item `Nc1ncnc2c1c(Cc1cccc(F)c1)nn2[C@H]1C[C@H](O)C1` showed IC50 equal to 28.3

Tested on T. gondii CDPK1 (tgCDPK1) (Toxoplasma gondii, UniProt Q9BJF5), the item `COc1ccnc(Oc2nn(CC3CC3)c3ncnc(N)c23)c1` showed IC50 equal to 25.1

Tested on T. gondii CDPK1 (tgCDPK1) (Toxoplasma gondii, UniProt Q9BJF5), the item `Nc1ncnc2c1c(Cc1c[nH]c3ccc(F)cc13)nn2[C@H]1C[C@H](O)C1` showed IC50 equal to 10.2

Tested on T. gondii CDPK1 (tgCDPK1) (Toxoplasma gondii, UniProt Q9BJF5), the item Nc1ncnc2c1c(Oc1cc(C(F)(F)F)ccn1)nn2C1CCCNC1 (centres unmarked) showed IC50 equal to 56.8

Tested on T. gondii CDPK1 (tgCDPK1) (Toxoplasma gondii, UniProt Q9BJF5), the item `Nc1ncnc2c1c(Oc1cc(C(F)(F)F)ccn1)nn2[C@H]1CC[C@@H](O)CC1` showed IC50 equal to 18.6

Tested on T. gondii CDPK1 (tgCDPK1) (Toxoplasma gondii, UniProt Q9BJF5), the item `Nc1ncnc2c1c(Oc1cc(C(F)(F)F)ccn1)nn2[C@H]1COC[C@H](N)C1` showed IC50 equal to 60.7

Tested on T. gondii CDPK1 (tgCDPK1) (Toxoplasma gondii, UniProt Q9BJF5), the item Nc1ncnc2c1c(Oc1cc(Cl)ccn1)nn2C1CCOC1 (centres unmarked) showed IC50 equal to 55.7

Tested on T. gondii CDPK1 (tgCDPK1) (Toxoplasma gondii, UniProt Q9BJF5), the item COC1CCCCC1n1nc(Oc2cc(C(F)(F)F)ccn2)c2c(N)ncnc21 (centres unmarked) showed IC50 equal to 85.6

Tested on T. gondii CDPK1 (tgCDPK1) (Toxoplasma gondii, UniProt Q9BJF5), the item Nc1ncnc2c1c(Oc1cc(C(F)(F)F)ccn1)nn2CC1CC(O)C1 (centres unmarked) showed IC50 equal to 35.8

Tested on T. gondii CDPK1 (tgCDPK1) (Toxoplasma gondii, UniProt Q9BJF5), the item `CC(C)(C)n1nc(Oc2cc(C(N)=O)ccn2)c2c(N)ncnc21` showed IC50 equal to 40.5

Tested on T. gondii CDPK1 (tgCDPK1) (Toxoplasma gondii, UniProt Q9BJF5), the item `Nc1ncnc2c1c(Oc1cc(Cl)ccn1)nn2C1CCNCC1` showed IC50 equal to 29.7

Tested on T. gondii CDPK1 (tgCDPK1) (Toxoplasma gondii, UniProt Q9BJF5), the item Nc1ncnc2c1c(Oc1cc(Cl)ccn1)nn2C1CCCNC1 (centres unmarked) [Compound 222] showed IC50 equal to 24.6

Tested on T. gondii CDPK1 (tgCDPK1) (Toxoplasma gondii, UniProt Q9BJF5), the item `N#Cc1ccnc(Oc2nn(C3CCCCC3)c3ncnc(N)c23)c1` showed IC50 equal to 12.3

Tested on T. gondii CDPK1 (tgCDPK1) (Toxoplasma gondii, UniProt Q9BJF5), the item `Nc1ncnc2[nH]nc(Oc3cccc(Cl)c3)c12` showed IC50 equal to 77.3

Tested on T. gondii CDPK1 (tgCDPK1) (Toxoplasma gondii, UniProt Q9BJF5), the item Nc1ncnc2c1c(Oc1cc(C(F)(F)F)ccn1)nn2[C@H]1CCCC[C@H]1O (racemic) [191 cis (rac)] showed IC50 equal to 44

Tested on T. gondii CDPK1 (tgCDPK1) (Toxoplasma gondii, UniProt Q9BJF5), the item `CC(C)(C)n1nc(Cc2c[nH]c3ccccc23)c2c(N)ncnc21` showed IC50 equal to 9

Tested on T. gondii CDPK1 (tgCDPK1) (Toxoplasma gondii, UniProt Q9BJF5), the item Nc1ncnc2c1c(Oc1cc(C(F)(F)F)ccn1)nn2C1CCCCC1=O (centres unmarked) showed IC50 equal to 98.5

Tested on T. gondii CDPK1 (tgCDPK1) (Toxoplasma gondii, UniProt Q9BJF5), the item `Nc1ncnc2c1c(Oc1cc(C(F)(F)F)ccn1)nn2[C@H]1COC[C@@H](N)C1` showed IC50 equal to 55

Tested on T. gondii CDPK1 (tgCDPK1) (Toxoplasma gondii, UniProt Q9BJF5), the item `Nc1ncnc2c1c(Cc1cccc(Br)c1)nn2[C@H]1C[C@H](O)C1` showed IC50 equal to 18.4

Tested on T. gondii CDPK1 (tgCDPK1) (Toxoplasma gondii, UniProt Q9BJF5), the item `Nc1ncnc2c1c(Cc1cccc(Cl)c1)nn2[C@H]1C[C@@H](F)C1` showed IC50 equal to 7.05

Tested on T. gondii CDPK1 (tgCDPK1) (Toxoplasma gondii, UniProt Q9BJF5), the item `NC(=O)c1ccnc(Oc2nn([C@H]3C[C@H](F)C3)c3ncnc(N)c23)c1` showed IC50 equal to 69.7

Tested on T. gondii CDPK1 (tgCDPK1) (Toxoplasma gondii, UniProt Q9BJF5), the item `Nc1ncnc2c1c(Oc1cc(C(F)(F)F)ccn1)nn2[C@H]1C[C@H](O)C1` showed IC50 equal to 26.5

Tested on T. gondii CDPK1 (tgCDPK1) (Toxoplasma gondii, UniProt Q9BJF5), the item `Nc1ncnc2c1c(Oc1cc(C(F)(F)F)ccn1)nn2CC1CC1` showed IC50 equal to 22.4

Tested on T. gondii CDPK1 (tgCDPK1) (Toxoplasma gondii, UniProt Q9BJF5), the item `Nc1ncnc2c1c(Oc1cc(Cl)ccn1)nn2[C@H]1C[C@H](O)C1` showed IC50 equal to 15.4

Tested on T. gondii CDPK1 (tgCDPK1) (Toxoplasma gondii, UniProt Q9BJF5), the item `Nc1ncnc2c1c(Oc1cc(C(F)(F)F)ccn1)nn2[C@@H]1CC[C@H](N)C1` showed IC50 equal to 42.1

Tested on T. gondii CDPK1 (tgCDPK1) (Toxoplasma gondii, UniProt Q9BJF5), the item `COc1ccnc(Oc2nn(C3CCOCC3)c3ncnc(N)c23)c1` showed IC50 equal to 54.4

Tested on T. gondii CDPK1 (tgCDPK1) (Toxoplasma gondii, UniProt Q9BJF5), the item `Nc1ncnc2c1c(Oc1cc(CO)ccn1)nn2C1CC1` showed IC50 equal to 29.6

Tested on T. gondii CDPK1 (tgCDPK1) (Toxoplasma gondii, UniProt Q9BJF5), the item `CCOC(=O)C1(n2nc(Oc3cc(C(F)(F)F)ccn3)c3c(N)ncnc32)CCC1` showed IC50 equal to 728

Tested on T. gondii CDPK1 (tgCDPK1) (Toxoplasma gondii, UniProt Q9BJF5), the item `CO[C@H]1CC[C@H](n2nc(Oc3cc(C(F)(F)F)ccn3)c3c(N)ncnc32)CC1` showed IC50 equal to 38.1

Tested on T. gondii CDPK1 (tgCDPK1) (Toxoplasma gondii, UniProt Q9BJF5), the item C=CC(O)Cn1nc(Oc2cc(C(F)(F)F)ccn2)c2c(N)ncnc21 (centres unmarked) showed IC50 equal to 11.7
